Parameter IC50, tested on FGFR3 kinase (Homo sapiens), listed per item.
Sequence (P22607 23-806): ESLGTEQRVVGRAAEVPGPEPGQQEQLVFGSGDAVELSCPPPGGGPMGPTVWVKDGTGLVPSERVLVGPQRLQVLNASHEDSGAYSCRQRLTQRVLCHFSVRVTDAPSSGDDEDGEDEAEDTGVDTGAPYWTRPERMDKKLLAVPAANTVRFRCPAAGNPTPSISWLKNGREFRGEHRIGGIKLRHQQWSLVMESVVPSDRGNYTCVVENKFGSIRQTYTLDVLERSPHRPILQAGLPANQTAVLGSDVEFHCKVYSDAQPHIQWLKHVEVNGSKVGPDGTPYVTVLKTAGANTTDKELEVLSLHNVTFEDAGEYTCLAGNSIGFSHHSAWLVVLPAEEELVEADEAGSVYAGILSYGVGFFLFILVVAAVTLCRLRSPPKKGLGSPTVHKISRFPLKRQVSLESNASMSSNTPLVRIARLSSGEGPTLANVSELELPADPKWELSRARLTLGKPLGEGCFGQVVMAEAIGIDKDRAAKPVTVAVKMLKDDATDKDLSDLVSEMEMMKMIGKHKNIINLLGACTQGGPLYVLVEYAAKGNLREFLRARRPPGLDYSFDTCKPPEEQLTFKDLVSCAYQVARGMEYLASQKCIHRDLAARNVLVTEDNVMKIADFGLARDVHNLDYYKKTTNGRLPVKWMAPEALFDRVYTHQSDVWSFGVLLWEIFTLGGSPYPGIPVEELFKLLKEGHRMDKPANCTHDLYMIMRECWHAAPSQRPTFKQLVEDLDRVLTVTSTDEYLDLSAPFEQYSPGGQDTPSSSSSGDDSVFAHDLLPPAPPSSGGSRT
Quick note: give the figure in nM, leave out the unit.

CC[C@H]1O[C@@H](c2ccncc2NC(=O)c2nc(-c3ccccc3)cnc2N)C[C@@H](N)[C@@H]1O [Example 343]	35
Nc1ncc(-c2ccccc2)nc1C(=O)Nc1cnccc1[C@H]1C[C@@H](O)[C@@]2(O)CCCC[C@H]2O1 [Example 173]	45
C[C@]1(O)[C@H](N)C[C@H](c2ccncc2NC(=O)c2nc(-c3ccccc3)cnc2N)O[C@@H]1C1CC1 [Example 344]	440
Nc1ncc(-c2ccccc2)nc1C(=O)Nc1cnccc1[C@@H]1C[C@H](O)[C@]2(O)CCC[C@@H]2O1 [Example 186]	3700
Nc1ncc(-c2ccccc2)nc1C(=O)Nc1cnccc1[C@@H]1C[C@H](O)[C@]2(O)CCCC[C@@H]2O1 [Example 176]	8000
Nc1ncc(-c2ccccc2)nc1C(=O)Nc1cnccc1[C@H]1C[C@@H](N)[C@H](O)[C@@H](C2CC2)O1 [Example 346]	180
Nc1ncc(-c2ccccc2)nc1C(=O)Nc1cnccc1[C@H]1C[C@@H](O)[C@@]2(O)CCC[C@H]2O1 [Example 195]	11
CC(C)(C)[C@H]1O[C@@H](c2ccncc2NC(=O)c2nc(-c3ccccc3)cnc2N)C[C@@H](N)[C@@H]1O [Example 354]	870
Nc1ncc(-c2ccccc2)nc1C(=O)Nc1cnccc1[C@H]1C[C@@H](O)[C@H](O)[C@@H](CO)O1 [Example 341]	480
Nc1ncc(-c2ccccc2)nc1C(=O)Nc1cnccc1[C@@H]1C[C@H](N)[C@@H](O)[C@H](C2CC2)O1 [Example 349]	6900

Challenge: Enter IC50 (test system FGFR3 kinase (Homo sapiens)) for CC(C)(C)[C@@H]1O[C@H](c2ccncc2NC(=O)c2nc(-c3ccccc3)cnc2N)C[C@@H](N)[C@H]1O [Example 227]
Response given: 2400

Challenge: Report IC50 under test system FGFR3 kinase (Homo sapiens) for Nc1ncc(-c2ccccc2)nc1C(=O)Nc1cnccc1[C@H]1C[C@@H](N)[C@@]2(O)CCC[C@H]2O1 [Example 183] .
Response given: 44

The values you see were collected from patent US20130109682A1.
